Reported koff values for a set of binders
- target: T1, human programmed cell death protein 1 (hPD-1) C93S (aa 24-167) (Homo sapiens, UniProt Q15116, C93S)
- T1 construct: made as a fusion with a TEV site and human Fc; the Fc was cut off with TEV protease; source: Expi293F, purified (Protein A, TEV cleavage of Fc, SEC; monomer fractions); not shown: Fc (human), C-terminal, cleaved
- T1 sequence (Q15116 24-167 C93S): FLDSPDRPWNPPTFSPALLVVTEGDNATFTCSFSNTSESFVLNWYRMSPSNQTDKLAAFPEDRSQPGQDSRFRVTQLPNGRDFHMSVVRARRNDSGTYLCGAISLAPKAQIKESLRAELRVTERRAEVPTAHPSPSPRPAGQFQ
- test-protocol: SPR; Carterra LSA; Fab from the ammonium sulfate precipitate of the culture supernatant immobilised on a NiHC200M chip; hPD-1 (1-1024 nM) or mPD-1-Fc (4-1024 nM) as analyte, fourfold dilution series, no regeneration; HBS-EP pH 7.4, 25 °C; medians over the spots of a construct, KD = koff/kon
- conditions: one partner purified

- binder: "toripalimab Fab L.L101M (Fab, V domains shown, as the heavy chain of Sm3; light chain of Sm3 with this change; numbers count from the chain's first residue; source: Brevibacillus, culture supernatant (ammonium sulfate precipitate); not shown: 6xHis, C-terminal, kept; 6xHN, C-terminal, kept) VH: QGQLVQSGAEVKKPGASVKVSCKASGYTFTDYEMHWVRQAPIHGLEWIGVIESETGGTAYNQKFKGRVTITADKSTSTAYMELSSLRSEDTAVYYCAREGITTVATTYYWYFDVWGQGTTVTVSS VL: DVVMTQSPLSLPVTLGQPASISCRSSQSIVHSNGNTYLEWYLQKPGQSPQLLIYKVSNRFSGVPDRFSGSGSGTDFTLKISRVEAEDVGVYYCFQGSHVPMTFGQGTKLEIK"
  koff: "< 1e-05 s⁻¹"
- binder: "toripalimab Fab L.V99A (Fab, V domains shown, as the heavy chain of Sm3; light chain of Sm3 with this change; numbers count from the chain's first residue; source: Brevibacillus, culture supernatant (ammonium sulfate precipitate); not shown: 6xHis, C-terminal, kept; 6xHN, C-terminal, kept) VH: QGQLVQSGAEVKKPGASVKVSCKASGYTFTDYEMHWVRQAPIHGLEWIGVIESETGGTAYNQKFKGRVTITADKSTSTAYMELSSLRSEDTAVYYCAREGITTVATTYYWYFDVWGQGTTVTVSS VL: DVVMTQSPLSLPVTLGQPASISCRSSQSIVHSNGNTYLEWYLQKPGQSPQLLIYKVSNRFSGVPDRFSGSGSGTDFTLKISRVEAEDVGVYYCFQGSHAPLTFGQGTKLEIK"
  koff: "3.6e-05 s⁻¹"
- binder: "toripalimab Fab H.Q62A (Fab, V domains shown, heavy chain of Sm3 with this change; numbers count from the chain's first residue; as the light chain of Sm3; source: Brevibacillus, culture supernatant (ammonium sulfate precipitate); not shown: 6xHis, C-terminal, kept; 6xHN, C-terminal, kept) VH: QGQLVQSGAEVKKPGASVKVSCKASGYTFTDYEMHWVRQAPIHGLEWIGVIESETGGTAYNAKFKGRVTITADKSTSTAYMELSSLRSEDTAVYYCAREGITTVATTYYWYFDVWGQGTTVTVSS VL: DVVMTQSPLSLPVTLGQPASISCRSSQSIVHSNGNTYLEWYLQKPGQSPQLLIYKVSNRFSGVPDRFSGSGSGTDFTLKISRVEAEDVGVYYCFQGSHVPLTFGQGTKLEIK"
  koff: "< 1e-05 s⁻¹"

Source listed as paper PMC10663500.
